EXPERIMENTAL_SYSTEM: T1, recombinant human PD-L1 extracellular domain (ECD) protein (cat #FCL0784B, G&P Biosciences) (human, UniProt Q9NZQ7 19-238)
T1 construct: extracellular domain; Bought protein; also called hPD-L1 protein; human PD-L1 protein
T1 sequence (Q9NZQ7 19-238): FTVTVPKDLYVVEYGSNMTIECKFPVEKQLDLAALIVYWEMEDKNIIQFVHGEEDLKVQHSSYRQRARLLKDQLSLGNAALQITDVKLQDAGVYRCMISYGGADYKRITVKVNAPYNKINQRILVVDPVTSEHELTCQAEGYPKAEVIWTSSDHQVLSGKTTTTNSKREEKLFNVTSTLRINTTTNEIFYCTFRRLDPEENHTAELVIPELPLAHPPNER
TEST_SUMMARY: SPR, human PD-L1 ECD immobilised on CM5 chip
No end group written: not given here.

{"columns": ["BINDER", "UNIT_ABBREV", "Kd"],
 "data": [
  ["WHFSYNWRWLPP (not fully specified, 12-mer from phage display) [CLP003 peptide]", "nM", 117],
  ["DYHDPSLPTLRK (not fully specified, 12-mer from phage display) [CLP004 peptide]", "nM", 544],
  ["HYPFRPHANQAS (not fully specified, 12-mer from phage display) [CLP001 peptide]", "nM", 534],
  ["WHRSYYTWNLNT (not fully specified, 12-mer from phage display) [CLP002 peptide]", "nM", 366]
]}
